PROCEDURE_DETAILS: yeast display, Sf9 membrane polyspecificity reagent, FACS + sequencing; frameworks hold sequencing errors
READOUT_KIND: polyreactivity (PSR sort gate)

* QVQLVESGGGLVQAGGSLRLSCAASGRIFVKYVMGWYRQAPGKERELVAAISSRGGSTYYADSVKGRFTSSRDNAKNTVYLQMNSLKPEDTAVYYCNKAFTARDDYWGQGTQVTVSS | high polyreactivity
* QVQLVQSGGGLVQAGGSLRVSSAASGNIFAYYAKGWYSQAPGKERELVAAITDSGGNTFYADSVKGRFTISRDQAKNTVYLQMNSLKPEDTAVYYCAADTFYSYYDMDYWGQGTQVTVSS | low polyreactivity
* QVQLEESGAGLVQAGGSLRLCCAASGNTFSSNAMGLYTQAPGKEMELVAGITKSGGRTYYADSVKGRFTISRDNAQYTVYLHMNSLKPEDSAVFYCNRRAGPFSIQYYYWGQVTQVTVSS | high polyreactivity
* QVQLVESGGCLVQAGGSLRLSCAASGSSFSRYTMGWYSQAPGKERELVAVISDSSGRTYYADSVKGRFTISRDTAKNTVYLQMNSLKPEDTAVYYCAAEYSDIYEYCGQGTQVTVSS | low polyreactivity
* QVQLVESGGGLVQAGGSLRLSCAASGRTFSTYAMGWYRQAPGKERELFAAISSGGGRTYYADSVKGRFTISRDNAKNTVYLQMNSLKPEDTAVYYCAADRYFRSRRSYEYWGQGTQVTVSS | low polyreactivity
* QVQLEESGGGLVQAGGSLRLSCAASGGTFGWYAMGWYRPAPGTERELVAAITSSGGTTFYADSVKGRFTISRDTAKNTVYLQMNSLKPEDTAVYYCAKRGKRPTRYKLGKYDYWGQGTQVTVSS | high polyreactivity
* QVQLVESGGGLVQAGGSLRLSCAASGSIFRSYAMGWYRQAPGKERELVAAITSGDSTYYADSVKGRFTISRDNAKNTVYLQMNSLKPEDTAVYYCATGLGSTDRSYEYWGQGTQVTVSS | low polyreactivity
* QVQLVESGGGLVQAGGSLRLSCAASGSIFWSYAMGWYRHAPGKESELVAAITYSGTSTYYADSVKGRFTISRDTAKNTVYLQMNSLKPEDTAVYYCAASPFSRSRNDYWGQGTQVTLSS | low polyreactivity
* QVQLVESGGGLVQAGGSLRLSCAASGRIIGAYAMGWYRQAPGKERELVARISWSGGTTYYADSVKGRFTISRDNAKNTVYLQMDSLKPEDTAVYYCAARYSYYVTGGISKYDYWGQGTQVSVSS | low polyreactivity
* QVQLVESGGGLVQAGGSLRLTWAASGFILGYYAMGWYRQAPGKERELLPGISRSGGSTYYADSVKGRYTISRDNAKNTVYLQMNSLKPEDTSVYYCAKYPPYYTAYGWKYVYWGQGTQVTLSS | high polyreactivity
* QVKLVETGGGLVQAGGSLRLSCAASGRTFTPYTMGRYRQAPGKEREFVAAITFRGGSTYYADSVKGRFTISRDIAKNTVYLQMNSLKPEDTEVYFCNARGHGGWGTSMYYWGHGTQVTVSS | high polyreactivity
